Reported inhibition at 20 µM by item:
- system: Rac-1 (Homo sapiens, UniProt P63000)
- protocol-text: Ras GTP binding domain inhibition assay (Cy3-GTP/Cy5-GTP competition)
- assay-setup: without SOS, read-out: Rac-1: % inh.

The cases that follow already have their inhibition at 20 µM on record.
>  <compound>
Cn1ccnc1-c1nc(O)c(O)c(C(=O)N2CCCC2)n1 [drawing 963]

>  <inhibition at 20 µM>
51 to 75%

$$$$
>  <compound>
COCCNc1nc(-c2nccn2C)nc2sc(-c3ccccc3Cl)c(-c3ccc(OC)cc3)c12 [drawing 1011]

>  <inhibition at 20 µM>
1 to 25%

$$$$
>  <compound>
Cc1c(-c2ccn(C)n2)sc2nc(-c3nccn3C)nc(NCCCC(=O)N(C)C)c12 [drawing 1052]

>  <inhibition at 20 µM>
76 to 100%

$$$$

Turning to the following compound.
Prompt: Endpoint output: inhibition at 20 µM of Oc1nc(-c2nccn2Cc2ccccn2)nc2c(-c3ccccn3)csc12 [drawing 986] . Value?
Response: 76 to 100%

###

Reported inhibition at 20 µM by item:
- system: KRas G12D mutant (Homo sapiens, UniProt P01116, G12D)
- Construct: fused on or other part: His tag, used for capture on nickel-coated plates
- protocol-text: Ras GTP binding domain inhibition assay (Cy3-GTP/Cy5-GTP competition)
- assay-setup: 20 μM; without SOS; read-out: KRas G12D mutant: % inh.

>  <compound>
COCCn1cc(-c2sc3nc(-c4nccn4C)nc(N4CCC(OC)C4)c3c2-c2ccccc2)cn1.Cl (stereo not shown)

>  <inhibition at 20 µM>
51 to 75%

$$$$
>  <compound>
COCC(C)Nc1nc(-c2nccn2C)nc2sc(-c3cccc(OC)c3)c(-c3cscn3)c12 (stereo not shown) [drawing 855]

>  <inhibition at 20 µM>
51 to 75%

$$$$

Prompt: Endpoint output: inhibition at 20 µM of Oc1nc(-c2cn(-c3ccccc3)cn2)nc2c(-c3ccccn3)csc12 [drawing 847] . Value?
Response: 1 to 25%

Prompt: Endpoint output: inhibition at 20 µM of COCC1CCN(c2nc(-c3nccn3C)nc3sc(-c4ccn(C)n4)c(-c4ccccc4)c23)C1 (stereo not shown) [drawing 858] . Value?
Response: 26 to 50%

Prompt: Endpoint output: inhibition at 20 µM of COC1CCN(c2nc(-c3nccn3C)nc3sc(-c4ccn(C)n4)c(-c4ccccc4)c23)CC1 [drawing 856] . Value?
Response: 26 to 50%

Prompt: Endpoint output: inhibition at 20 µM of COCCN(C)C(=O)c1nc(-c2ccccn2)nc(O)c1O [drawing 810] . Value?
Response: 1 to 25%

Prompt: Endpoint output: inhibition at 20 µM of Cn1ccnc1-c1nc(O)c(O)c(C(=O)N2CCCCC2)n1 [drawing 826] . Value?
Response: 26 to 50%

Prompt: Endpoint output: inhibition at 20 µM of COc1cccc(-c2csc3c(O)nc(-c4nccn4C)nc23)c1Cl [drawing 878] . Value?
Response: 1 to 25%

Prompt: Endpoint output: inhibition at 20 µM of Cn1ccnc1-c1nc(O)c(O)c(C(=O)NC2CCC2)n1 [drawing 825] . Value?
Response: 51 to 75%

Prompt: Endpoint output: inhibition at 20 µM of COc1ccc(Cn2cnc(-c3nc(O)c4scc(-c5ccccn5)c4n3)c2)cc1 [drawing 839] . Value?
Response: 1 to 25%

Prompt: Endpoint output: inhibition at 20 µM of COc1nscc1-c1sc2nc(-c3nccn3C)nc(N3CCC(OC)C3)c2c1-c1ccccc1.Cl (stereo not shown) . Value?
Response: 26 to 50%

Prompt: Endpoint output: inhibition at 20 µM of O=C(c1nc(-c2ccccn2)nc(O)c1O)N1CCOCC1 [drawing 800] . Value?
Response: 26 to 50%

Prompt: Endpoint output: inhibition at 20 µM of COc1ccc(Oc2nc(-c3ccccn3)nc(O)c2OC)cc1 [drawing 815] . Value?
Response: 76 to 100%
